- Tested on: RPMI-8226 leukemia
- protocol.description: NCI tumour cell line growth inhibition, 48 h
What TGI was measured for each of the following?

1) Cc1ccc(S(=O)(=O)NNS(C)(=O)=O)cc1 > 100 µM
2) COc1ccc2[nH]c3c(c2c1)CC(=O)N1CCC[C@H](C1)CC31OCCCO1 > 100 µM
3) COc1ccc(/C=C/c2ccnc3ccccc23)cc1OC 57.1 µM

I would be grateful if you could provide TGI for each of the following entries.
1. COc1ccc(N2C(=O)/C(=C/c3ccc(N(CCC#N)CCC#N)cc3)N=C2c2ccccc2)cc1
2. CCOC(=O)c1cc(C)nc2c1c(=O)n(-c1ccccc1)c(=O)n2CCCCN1CCN(c2ncccn2)CC1

# output
["> 100 µM", "> 100 µM"]

====

- System: NCI-H460 lung
- protocol.description: NCI tumour cell line growth inhibition, 48 h
What TGI was measured for each of the following?

Use these answered entries as a reference point.
compound	TGI
CN1CCN(c2ccc(NC3=CC(=O)c4ncncc4C3=O)cc2)CC1	1.22 µM
CC1(C)C(=O)/C=C\C(=O)C(C)(C)C(=O)/C=C\C(=O)C(C)(C)C2=CC=C(O2)C(C)(C)C(=O)/C=C\C1=O	46.8 µM
O=C(C(=CN1CCN(C(=O)c2ccco2)C1=S)C(=O)c1ccccc1)c1ccccc1	11.6 µM
COc1ccc(/C=C/C(=O)c2ccc(Br)cc2)cc1	> 100 µM
CCC(=O)Nc1nnc(Cc2ccc(OC)c(OC)c2)s1	> 100 µM

I would be grateful if you could provide TGI for each of the following entries.
1. O=C1/C(=C/c2ccc(C(F)(F)F)cc2)COc2ccc(O)c(O)c21
2. S=C(SSC(=S)N1CCCCC1)N1CCCCC1

# output
1. 3.9 µM
2. 41.5 µM

I would be grateful if you could provide TGI for each of the following entries.
1. O=c1c2c3c(sc2nc2n1NC=NN2)CCCC3
2. O=S(=O)(/N=C(\NO)Nc1ccc(Cl)cc1)c1cc2ccccc2s1
3. COc1ccc2c(c1)[n+]([O-])c(-c1ccccc1Cl)c(N)[n+]2[O-]
4. CNC(=O)CNC(=O)N(C[C@@H]1CCCN1C(=O)[C@H](CC(C)C)NC(=O)OC(C)(C)C)C(C)C

# output
["38.3 µM", "> 100 µM", "> 100 µM", "> 100 µM"]

====

- Test system: SNB-75 CNS
- protocol.description: NCI tumour cell line growth inhibition, 48 h; in the data active = GI50 below about 0.43 µM; inactive = the rest
# output must be one of label 1 = active, label 0 = inactive

1) O=C1/C(=C/c2ccc([N+](=O)[O-])o2)Oc2ccc(Cl)cc21 label 0

# input For C(=N\Nc1ccc2ccccc2n1)/c1ccccn1 , which call appears in the assay record?
# output label 0

# input For CCc1c(C)c2cc(-n3c(-c4ccc(OC)cc4)csc3=N)c(O)c(C)c2oc1=O , which call appears in the assay record?
# output label 0

# input For COc1cc(-c2ccc[nH]2)[nH]c1/C=C1\N=C(C)C(CC(=O)OCC(C)(C)C)=C1C , which call appears in the assay record?
# output label 1

# input For Cc1c(C(N)=O)sc2nc(C)n(/N=c3\scc(-c4ccccc4)n3Cc3ccccc3)c(=O)c12 , which call appears in the assay record?
# output label 0

# input For O=C1C(Cl)=C(NCCCN(CCCNC2=C(Cl)C(=O)c3ccccc3C2=O)C2=C(Cl)C(=O)c3ccccc3C2=O)C(=O)c2ccccc21 , which call appears in the assay record?
# output label 0

# input For COc1cnccc1Nc1nc(-c2nn(Cc3c(F)cc(OCCO)cc3F)c3ccccc23)ncc1OC , which call appears in the assay record?
# output label 0

# input For CC1=C[C@@H]2c3c(c(O)c(O)c4oc5cc(O)cc(O)c5c(=O)c34)[C@@H](c3cc(O)c(O)c4oc5cc(O)cc(O)c5c(=O)c34)[C@@H]2C(C)(C)C1 , which call appears in the assay record?
# output label 0

Every entry's value here was drawn from PubChem BioAssay (NCI).
